- TEST_PROTOCOL: Solubility of oxcarbazepine in the presence of excipients
- Assay type: physicochemical
- TEST_CONTEXT: phosphate buffer with 1% w/w SLS and 1% w/w HBCD, aqueous with cosolvent or surfactant or cyclodextrin, thermodynamic from solid, SLS/HBCD 1, 1% w/w in phosphate buffer; read-out: Solubility
OBSERVABLE: solubility (µg/mL)

In [3]: df
Out[3]:
                                   molecule  recorded_measurement
0  NC(=O)N1c2ccccc2CC(=O)c2ccccc21 [Oxcarbazepine]                   349

----------
- TEST_PROTOCOL: Solubility of oxcarbazepine in the presence of excipients
- Assay type: physicochemical
- TEST_CONTEXT: phosphate buffer (control, no excipient), aqueous buffer, thermodynamic from solid, Phosphate Buffer Control; room temperature overnight; read-out: Solubility
OBSERVABLE: solubility (µg/mL)

>>> df
                                   compound  unit_of_measurement  recorded_measurement
0  NC(=O)N1c2ccccc2CC(=O)c2ccccc21 [Oxcarbazepine]                µg/mL                   401

All values here come from patent US11166960B2.
